Biological target: Rat brain protein farnesyltransferase (Rattus norvegicus, UniProt Q02293+Q04631)
Construct: Rat brain protein farnesyltransferase activity is measured; from tissue; host or cells: rat brain
Assay: % inhibition of farnesylation, scintillation proximity assay with biotin-K Ras B fragment
Type: biochemical
Details: Table 2; 1 × 10^-6 M
measuredMetric: % inhibition at 1 × 10^-6 M (%)

compound | measuredTarget | % inhibition at 1 × 10^-6 M (%)
CSCC[C@H](NC(=O)c1ccc(NC(=O)C[C@H]2C[C@@H](C(C)=O)C2(C)C)cc1-c1ccccc1)C(=O)O | Rat brain protein farnesyltransferase (Rattus norvegicus, UniProt Q02293+Q04631) | 32
CSCC[C@H](NC(=O)c1ccc(CN(C(CC2CCCCC2)CC2CCCCC2)S(=O)(=O)c2ccccc2)cc1-c1ccccc1C)C(=O)O | Rat brain protein farnesyltransferase (Rattus norvegicus, UniProt Q02293+Q04631) | 65

[1] CSCC[C@H](NC(=O)c1ccc(CN[C@@H](CC2CCCCC2)[C@@H](O)[C@@H](O)CC(C)C)cc1-c1ccccc1)C(=O)O
[2] CSCC[C@H](NC(=O)c1ccc(CNc2ccc(CCO)cc2)cc1-c1ccccc1)C(=O)O
Of 1 and 2 , whose reported % inhibition at 1 × 10^-6 M is the larger number? Answer format: the label of the selected item. 1
(1: 69%, 2: 45%)

[I] CSCC[C@H](NC(=O)c1ccc(CN(C(C)C)C(C)(C)Cc2ccccc2)cc1-c1ccccc1C)C(=O)O
[II] CSCC[C@H](NC(=O)c1ccc(NC(=O)OCc2cncs2)cc1-c1ccccc1C)C(=O)O
Of I versus II , which is the one with smaller reported % inhibition at 1 × 10^-6 M? Answer format: the label of the selected item. I

[P] CCOC(=O)c1ccc(NCc2ccc(C(=O)N[C@@H](CCSC)C(=O)O)c(-c3ccccc3)c2)cc1
[Q] CSCC[C@H](NC(=O)c1ccc(NC[C@@H]2CSCN2)cc1-c1ccccc1)C(=O)O.Cl
[R] CSCC[C@H](NC(=O)c1ccc(CNc2cccc(C(N)=O)c2)cc1-c1ccccc1)C(=O)O
Please produce an ascending ranking of these compounds based on % inhibition at 1 × 10^-6 M. Thanks in advance for listing the labels in the requested order. R, P, Q

[A] CSCC[C@H](NC(=O)c1ccc(CN(C)C(C)(C)Cc2ccccc2)cc1-c1ccccc1C)C(=O)O [Example 982]
[B] CSCC[C@H](NC(=O)c1ccc(S(=O)(=O)NC2CCN(Cc3ccccc3)CC2)cc1-c1ccccc1C)C(=O)O
Of A and B , whose reported % inhibition at 1 × 10^-6 M is the larger number? Answer format: the label of the selected item. A
(A: 64%, B: 41%)

[a] CSCC[C@H](NC(=O)c1ccc(CNCCN(C(C)C)C(C)C)cc1-c1ccccc1)C(=O)O
[b] CSCC[C@H](NC(=O)c1ccc(CNc2ccccc2Oc2ccccc2)cc1-c1ccccc1)C(=O)O
Of a versus b , which is the one with smaller reported % inhibition at 1 × 10^-6 M? Answer format: the label of the selected item. b

[1] CSCC[C@H](NC(=O)c1ccc(CN(C(C)C)C2(Cc3ccccc3)CCCC2)cc1-c1ccccc1C)C(=O)O
[2] CSCC[C@H](NC(=O)c1ccc(CNCc2ccco2)cc1-c1ccccc1)C(=O)[O-].[Li+]
Of 1 versus 2 , which is the one with smaller reported % inhibition at 1 × 10^-6 M? Answer format: the label of the selected item. 2

[A] CSCC[C@H](NC(=O)c1ccc(CN(C(C)C)C(C)(C)CC2CCCCC2)cc1-c1ccccc1C)C(=O)O
[B] COc1ccc(CC(=O)Nc2ccc(C(=O)N[C@@H](CCSC)C(=O)O)c(-c3ccccc3C)c2)cc1
[C] CCCCON(CCC1CCCCC1)Cc1ccc(C(=O)N[C@@H](CCS(C)(=O)=O)C(=O)O)c(-c2ccccc2C)c1
Please produce an ascending ranking of these compounds based on % inhibition at 1 × 10^-6 M. Thanks in advance for listing the labels in the requested order. C, B, A

[1] CSCC[C@H](NC(=O)c1ccc(S(=O)(=O)NCCC2CCCCC2)cc1-c1ccccc1C)C(=O)O
[2] CSCC[C@H](NC(=O)c1ccc(CNCCN2CCCC2)cc1-c1ccccc1)C(=O)O
Of 1 and 2 , whose reported % inhibition at 1 × 10^-6 M is the larger number? Answer format: the label of the selected item. 1
(1: 79%, 2: 34%)

###

Molecular target: Rat brain protein farnesyltransferase (Rattus norvegicus, UniProt Q02293+Q04631)
Construct: Rat brain protein farnesyltransferase activity is measured; from tissue; host or cells: rat brain
Assay: % inhibition of farnesylation, scintillation proximity assay with biotin-K Ras B fragment
Format: biochemical
Details: Table 1; 1 × 10^-5 M
measuredMetric: % inhibition at 1 × 10^-5 M (%)

These recorded examples may help you get a feel for the data.
compound | % inhibition at 1 × 10^-5 M / %
CSCC[C@H](NC(=O)c1ccc(CNCCCCc2ccccc2)cc1-c1ccccc1)C(=O)O [Example 718] | 40
CSCC[C@H](NC(=O)c1ccc(CNc2ccc(Oc3ccccc3)cc2)cc1-c1ccccc1)C(=O)O [Example 701] | 64
CCN(Cc1ccc(C(=O)N[C@@H](CCSC)C(=O)O)c(-c2ccccc2)c1)Cc1cc([N+](=O)[O-])ccc1O [Example 711] | 46
CSCC[C@H](NC(=O)c1ccc(CNc2cccc(C)c2)cc1-c1ccccc1)C(=O)O [Example 674] | 40
CSCC[C@H](NC(=O)c1ccc(CNc2cc(C)cc(C)c2)cc1-c1ccccc1)C(=O)O [Example 709] | 55
CSCC[C@H](NC(=O)c1ccc(CNc2ccc(C)c(C)c2)cc1-c1ccccc1)C(=O)O [Example 704] | 67
CSCC[C@H](NC(=O)c1ccc(NC(=O)c2cccc(N(C)C)c2)cc1-c1ccccc1)C(=O)O [Example 752] | 58
CSCC[C@H](NC(=O)c1ccc(CNc2nnc(C)s2)cc1-c1ccccc1)C(=O)O [Example 371] | 66
CSCC[C@H](NC(=O)c1ccc(CNC(CO)C(O)c2ccccc2)cc1-c1ccccc1)C(=O)O (stereo partly drawn) [Example 713] | 40
CSCC[C@H](NC(=O)c1ccc(CNCc2cc(Cl)cc(Cl)c2)cc1-c1ccccc1)C(=O)O [Example 712] | 69

[I] CSCC[C@H](NC(=O)c1ccc(CNc2cccc(CC(=O)O)c2)cc1-c1ccccc1)C(=O)O [Example 684]
[II] C=C[C@@H](CC1CCCCC1)NCc1ccc(C(=O)N[C@@H](CCSC)C(=O)O)c(-c2ccccc2)c1 [Example 664]
Of I versus II , which is the one with smaller reported % inhibition at 1 × 10^-5 M? Answer format: the label of the selected item. I

###

Target: Rat brain protein farnesyltransferase (Rattus norvegicus, UniProt Q02293+Q04631)
Construct: Rat brain protein farnesyltransferase activity is measured; from tissue; host or cells: rat brain
Assay: % inhibition of farnesylation, scintillation proximity assay with biotin-K Ras B fragment
Type: biochemical
Details: Table 4; 1 × 10^-8 M
measuredMetric: % inhibition at 1 × 10^-8 M (%)

structureSmiles | measuredTarget | measurementUnits | % inhibition at 1 × 10^-8 M
CCCCN(CCc1ccccc1)Cc1ccc(C(=O)N[C@@H](CCSC)C(=O)O)c(-c2ccccc2C)c1 | Rat brain protein farnesyltransferase (Rattus norvegicus, UniProt Q02293+Q04631) | % | 84

[A] CSCC[C@H](NC(=O)c1ccc(CN(Cc2ccccc2)c2ccc(C(F)(F)F)cc2)cc1-c1ccccc1C)C(=O)O
[B] CCSC[C@H](CC1CCCCC1)N(C=O)Cc1ccc(C(=O)N[C@@H](CCSC)C(=O)O)c(-c2ccccc2C)c1
Of A versus B , which is the one with smaller reported % inhibition at 1 × 10^-8 M? Answer format: the label of the selected item. B

###

Molecular target: Rat brain protein farnesyltransferase (Rattus norvegicus, UniProt Q02293+Q04631)
Construct: Rat brain protein farnesyltransferase activity is measured; from tissue; host or cells: rat brain
Assay: % inhibition of farnesylation, scintillation proximity assay with biotin-K Ras B fragment
Type: biochemical
Details: read-out: % inhibition at 0.01 μM (**); Table 6; ** footnote 0.01 μM (title: 0.01 mM)
Method: The ability of the compounds of the invention to inhibit protein farnesyltransferase or protein geranylgeranyltransferase can be measured according to the method of Moores, et al., J. Biol. Chem. 266: 14603 (1991) or the method of Vogt, et al., J. Biol. Chem. 270:660-664 (1995). […] In addition, in vitro inhibition of protein farnesyltransferase may be measured by the following procedure. […] The % inhibition of protein farnesyltransferase was determined for representative compounds of the invention.
Structures can show the parent of a compound that is named as a salt.
measuredMetric: inhibition at 0.01 µM (%)

compound | measuredTarget | inhibition at 0.01 µM (%)
CCS(=O)(=O)C[C@H](CC1CCCCC1)OCc1ccc(C(=O)N[C@@H](CCSC)C(=O)O)c(-c2ccccc2C)c1 [Example 1311, Lithium Salt] | Rat brain protein farnesyltransferase (Rattus norvegicus, UniProt Q02293+Q04631) | 95
CSCC[C@H](NC(=O)c1ccc(CO[C@H](CO)CC2CCCCC2)cc1-c1ccccc1C)C(=O)O [Example 1049, lithium salt] | Rat brain protein farnesyltransferase (Rattus norvegicus, UniProt Q02293+Q04631) | 93
CCCCSC[C@H](CC1CCCCC1)OCc1ccc(C(=O)N[C@@H](CCSC)C(=O)O)c(-c2ccccc2C)c1 [Example 1312, Lithium Salt] | Rat brain protein farnesyltransferase (Rattus norvegicus, UniProt Q02293+Q04631) | 91
CSCC[C@H](NC(=O)c1ccc(CO[C@H](COC2CCC2)CC2CCCCC2)cc1-c1ccccc1C)C(=O)O [Example 1345, Lithium Salt] | Rat brain protein farnesyltransferase (Rattus norvegicus, UniProt Q02293+Q04631) | 94
CSCC[C@H](NC(=O)c1ccc(COC(CCC2CCCCC2)c2cnnn2C)cc1-c1ccccc1C)C(=O)O (stereo partly shown) [Example 1225, lithium salt] | Rat brain protein farnesyltransferase (Rattus norvegicus, UniProt Q02293+Q04631) | 92
CSCC[C@H](NC(=O)c1ccc(CO[C@@H](CC2CCCCC2)C(=O)N2CCS(=O)(=O)CC2)cc1-c1ccccc1C)C(=O)O [Example 1348, Lithium Salt] | Rat brain protein farnesyltransferase (Rattus norvegicus, UniProt Q02293+Q04631) | 78
CSCC[C@H](NC(=O)c1ccc(CO[C@H](COCC(O)CO)CC2CCCCC2)cc1-c1ccccc1C)C(=O)O (stereo partly shown) [Example 1347, Lithium Salt] | Rat brain protein farnesyltransferase (Rattus norvegicus, UniProt Q02293+Q04631) | 81
CSCC[C@H](NC(=O)c1ccc(CO[C@@H](CC2CCCCC2)C(=O)N2CCCCC2)cc1-c1ccccc1C)C(=O)O [Example 1052, lithium salt] | Rat brain protein farnesyltransferase (Rattus norvegicus, UniProt Q02293+Q04631) | 91
CSCC[C@H](NC(=O)c1ccc(COCc2ccc(C3CCCCC3)o2)cc1-c1ccccc1C)C(=O)O [Example 1090, lithium salt] | Rat brain protein farnesyltransferase (Rattus norvegicus, UniProt Q02293+Q04631) | 81
CCCC[C@H](CC1CCCCC1)OCc1ccc(C(=O)N[C@@H](CCSC)C(=O)O)c(-c2ccccc2C)c1 [Example 1303, Lithium Salt] | Rat brain protein farnesyltransferase (Rattus norvegicus, UniProt Q02293+Q04631) | 91
CSCC[C@H](NC(=O)c1ccc(CO[C@@H](CC2CCCCC2)C(=O)N2CCSCC2)cc1-c1ccccc1C)C(=O)O [Example 1054, lithium salt] | Rat brain protein farnesyltransferase (Rattus norvegicus, UniProt Q02293+Q04631) | 89
CSCC[C@H](NC(=O)c1ccc(CO[C@@H](CC2CCCCC2)C(=O)N2CCOCC2)cc1-c1ccccc1C)C(=O)O [Example 1053, lithium salt] | Rat brain protein farnesyltransferase (Rattus norvegicus, UniProt Q02293+Q04631) | 60
CSCC[C@H](NC(=O)c1ccc(COCc2cc(F)cc(F)c2)cc1-c1ccccc1C)C(=O)O [Example 1226, lithium salt] | Rat brain protein farnesyltransferase (Rattus norvegicus, UniProt Q02293+Q04631) | 69
